- System: PRC2-mediated histone H3 methylation
- Procedure Text: Tri-Methyl Histone H3 (Lys 27) Sandwich ELISA in Pfeiffer cells: inhibition of PRC2-mediated histone H3 methylation
- Type: cell-based, human
- Measurement Conditions: Homo sapiens; Inhibition of EZH2-mediated histone H3 trimethylation; Pfeiffer cells (EZH2 A677G), 96 hours incubation
pIC50: −log10 of the molar value.
Listed here are molecules together with their documented pIC50.

Solved entries:
CN1CCOCC1c1ccc(-c2cnc(NCc3c(F)ccc4c3CCO4)n3cc(C#N)nc23)cc1 (centres unmarked) : 6.30 to 7.00
Cc1ncc(-c2cnc(NCc3c(F)ccc4c3CCO4)n3cc(C#N)nc23)cn1 : 6.30 to 7.00
N#Cc1cn2c(NCc3c(F)ccc4c3CCO4)ncc(-c3cc[nH]c(=O)c3)c2n1 : 6.30 to 7.00
CN(C)Cc1ccc(-c2cnc(NCc3c(F)ccc4c3CCO4)n3cc(C#N)nc23)cc1F : ≥ 7.00
Cc1cc(S(=O)(=O)C(F)(F)F)ccc1-c1cnc(NCc2c(F)ccc3c2CCO3)n2cc(C#N)nc12 : 6.30 to 7.00

**Query** If you can, please state the reported pIC50 value of N#Cc1cn2c(NCc3c(F)ccc4c3CCO4)ncc(-c3ccc(S(=O)(=O)C(F)(F)F)cc3)c2n1 .
**Result** < 6.30

**Query** Now the same for CN(C)S(=O)(=O)c1ccc(-c2cnc(NCc3c(F)ccc4c3CCO4)n3cc(C#N)nc23)cc1
**Result** 6.30 to 7.00

**Query** // repeat for Cc1ccc(-c2cnc(NCc3c(F)ccc4c3CCO4)n3cc(C#N)nc23)c(C)c1 and report
**Result** < 6.30

**Query** # iterate: N#Cc1cn2c(NCc3c(F)ccc4c3CCO4)ncc(-c3ccc([C@H]4CCCN4)cc3)c2n1
**Result** 6.30 to 7.00

**Query** Also need N#Cc1cn2c(NCc3c(F)ccc4c3CCO4)ncc(-c3cccc(C(=O)O)c3)c2n1 , thanks.
**Result** < 6.30

Data provenance: patent EP4043466B1
